- assay conditions: 293.15 K; 101.33 kPa; Liquid; Capillary tube (Ostwald / Ubbelohde) method
quantity measured: viscosity (mPa·s)

1) Cc1ccccc1
0.5891
2) CCCCCCCC
0.5433

1. CCc1ccccc1
2. C1CCCCC1
3. CCCCCCC
# sort list by recorded viscosity, greatest to least Put the labels in the requested order and write them down. 2, 1, 3

* * *

- assay conditions: 298.15 K; 101.33 kPa; Liquid; Capillary tube (Ostwald / Ubbelohde) method
quantity measured: viscosity (mPa·s)

Worked cases, viscosity given:
1) Cc1ccccc1 [toluene]
0.5528
2) CCCCCCC [heptane]
0.3895
3) CCc1ccccc1 [ethylbenzene]
0.6318

1. CCCCCCCC [octane]
2. C1CCCCC1 [cyclohexane]
For 1 and 2 , which recorded viscosity is lower? Mark your selection by writing its label. 1
(1: 0.5108 mPa·s, 2: 0.8931 mPa·s)
